# target or test system: T1, human PACAP38 (human, not fully specified; C-terminal lysine is amidated; N-terminal or C-terminal biotin in the HTRF and PC-12 cell binding assays)
# T1 peptide: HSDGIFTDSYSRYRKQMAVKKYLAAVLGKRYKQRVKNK
# test summary: cell-based or functional assay
measured metric: IC50, 1 nM PACAP38-induced human VPAC2-R mediated cAMP increase (nM)
Value expressed in nM; do not type the unit.

binder | measured value
anti-PACAP antibody Ab18 (antibody, human IgG1, kappa, N297A, V domains shown, full-length rabbit/human chimeric antibody) VH: QSVEESGGRLVTPGTPLTLTCTVSGFSLSSAALSWVRQAPGKGLEWIGIIDKGVMSYYASWAKGRFTISKTSSTTVDLKVTSPTTEDTATYFCARGGGEFFIWGQGTLVTVSS VL: AQVLTQTPSSVSAAVGGTVTINCQSSKSVYNNNWLSWYQQKPGQPPKFLIYQASNLASGVPSRFKGSGSGTQFTLTISDLECDDAATYYCAGGYSGNIVGFGGGTEVVVKR | 0.285

# evaluate next
Value of measured IC50, 1 nM PACAP38-induced human VPAC2-R mediated cAMP increase for the entry anti-PACAP antibody Ab9 (antibody, human IgG1, kappa, N297A, V domains shown, full-length rabbit/human chimeric antibody) VH: EQSGGGAEGGLVKPGGSLKLSCKASGFTISRDYWICWVRQAPGKGLEWIGCISAGGGSTDYANWVNGRFTLSRDIDQSTGCLQLNSLTDADTAMYYCAGNLEIWGQGTLVTVSS VL: AQVLTQTPSSVSAAVGGTVTINCQSSPSIYSGAFLSWFQQKPGQPPKFLIYEASKLASGVPSRFSGSGSGTQFTLTISDVQCDDAATYYCLGFYDCSSVDCHAFGGGTEVVVKR : 6.96
